# target_entity: T1, Recombinant human IL-1beta (rhIL-1b) (human, UniProt P01584 117-269)
# T1 construct: R&D Systems Cat. No. 201-LB/CF; also called IL-1β; human IL-1β
# assay_text: Biacore low-res, mAb captured, 25C; IL-1β in solution (118 nM) over captured mAb; low-resolution Biacore, 25 C
Parameter: log10 Kd. Scope: all listed entries.
Give log10 of Kd, with Kd taken in nM.

8.6.1 (antibody, human IgG4, V domains shown, lambda; also called 8.6.3) VH: QVQLQESGPGLVKPSETLSLTCTVSGGSVSSGGYYWSWVRQPPGKGLEWIGCIYFSESTNYNPSLKSRVTISVDTSKNQFSLKLSSVTAADTAVYYCARDPMHYYGMDVWGQGTTVTVSS VL: SFELTQPPSVSVSPGQTASITCSGDKLGDKFACWYQQKPGQSPVLVIYQDTKRPSGIPERISGSNSGNTATLTISGTQAMDEADYYCQAWDSSTYVVFGGGTKLTVL = 0.09

Entry under review: 9.11.1 (antibody, human IgG4, V domains shown, lambda; also called 9.11.3) VH: QVQLVESGGGVVQPGRSLRLSCAASGFTFSVYGMHWVRQAPGKGLEWVAVIWYDGNNKYYVDSVKGRFTISRDNSKNTLYLQLNSLRAEDTAVYYCARERSSSWYFDYWGQGTLVTVSS VL: QSALTQPASVSGSSGQSITISCTGTSSDVGSYNLVSWYQQHPGKAPKLMIYEVSKRPSGVSNRFSGSKSGNTASLTISGLQAEDEADYYCCSYAGNSNWVFGGGTKLTVL . Reported log10 Kd?
-0.54

Which log10 Kd reading was recorded for the binder 9.19.1 (antibody, human IgG4, V domains shown, lambda; also called mAb 9.19.1) VH: QVQLVESGGGVVQPGRSLRLSCAASGFTFNNYGMHWVRQAPGKGLECVAVIWYDGGNKYYADSVKGRFAISRDNSKNTLYLQMNSLRAEDTAVYYCTAVTKLNYYYGMDVWGQRTTVTVS VL: QSALTQPASVSGSPGQSITISCTGTSSDVGGYNYVSWYQQHPGKAPKFMIYEVSNRPSGVSNRFSGSKSGNTASLTISGLQAEDEADYYCSSYTSSSILVFGGGTKLTVL ?
-0.57

Consider the binder 5.36.1 (antibody, human IgG4, V domains shown, kappa) VH: QVQLQQSGPGLVKPSQTLSLTCAISGDSVSSNSAAWNWIRQSPSRGLEWLGRTYYRSKWYNDYAVSVKSRITINPDTSKNQFSLQLNSVTPEDTAVYYCAREEQQLVRYYYYYGMDVWGQGTTVTVS VL: DIVMTQTPLSLSVTPGQPASISCKSSQSLLHSDGRTYLYWYLQRPGQPPQLLIYEASYRFSGVPDRFSGSGSGTDFTLKISRVEAEDVGIYYCMQSIQLPRTFGQGTRLEIK and give its measured log10 Kd.
-0.15

What does the data say about its log10 Kd? Entry: 8.18.1 (antibody, human IgG4, V domains shown, lambda; also called mAb 8.18.1) VH: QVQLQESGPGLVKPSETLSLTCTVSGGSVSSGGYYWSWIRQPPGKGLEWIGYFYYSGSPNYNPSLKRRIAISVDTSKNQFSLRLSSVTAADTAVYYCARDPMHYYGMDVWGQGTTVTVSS VL: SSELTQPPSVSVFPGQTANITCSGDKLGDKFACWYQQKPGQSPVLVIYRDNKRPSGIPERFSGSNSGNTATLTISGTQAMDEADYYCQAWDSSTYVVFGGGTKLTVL
-0.20

Need log10 Kd of 9.31.1 (antibody, human IgG4, V domains shown, lambda; also called 9.31.3) VH: QVQLVESGGGLVKPGGSLRLSCAASGFTFSDYYMSWIRQAPGKGLEWVSYIRSSGSTIYYADSVKGRFTISRDNAKNSLYLQMNSLRAEDTAVYYCARTPYSGRYHWYFDLWGRGTLVTVS VL: SYELTQPPSVSVSPGQTARITCSGDALPIKYAYWYQHKSGQAPVLVIYEDSKRPSGIPERFSGSSSGTMATLTISGAQVEDEADYYCYSTDSSGNHRVFGGGTKLTVL , thanks.
0.76
